system: K4 kissing-loop RNA reporter; assay: apparent KD of K4 kissing-loop reporter; higher = weaker reporter binding; settings: Eterna round: R107; input ligand: theophylline 20 uM;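 note: bound reporter read as fluorescence of individual clusters on recovered sequencing chips by microscopy, with normalized cluster intensities fitted with a binding model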
Record criterion met whenever apparent KD of K4 kissing-loop reporter is at 100 nM or higher; record criterion not met when lower.

Worked examples follow.
[[record]]
seq_string = "AGGCACGAGCAAGGAUAUUGAGUAGAGUGAUGUUCUGCCUAAGUUGGCUCGAAAGAGCCUUCUUAGCGAGAAGGUGCUCGUGCCU [#2 Same State - FMN A Attempt #26 (HarryS)]"
category_label = "criterion met"

[[record]]
seq_string = "UAAGAAUAAGUAGCAGUGAUGUUGCUACUACGAGGACCGGUACGGCCGCCACUCGAAUACGAGUGGAAGUAGCAACUACCACUCA [(H1)-(H2)-(Trp1)-(Trp2)-(T)'-(H)'-(T)''_Design7]"
category_label = "criterion not met"

[[record]]
seq_string = "GAACGAGUGAUGUUCGUUGGCAUGCAUUCCGAGGAUAUGGGAUUAGCCAGAAGGCGGAAUCAGUCUUCGAGUGAUGUUCGAAGAU [Same State FMN A GF 12]"
category_label = "criterion met"

[[record]]
seq_string = "UGGAUAUAGUGAUGUUAUAUAGAGAUGGAUACCAGCGAAGAGAAUUGCCCUUGGCAGCCGAAAGCAGUAUCAUUAGAGAAGAAUG [#19 K4 Theophylline A Exclusion]"
category_label = "criterion met"

[[record]]
seq_string = "UGGAUAUAGUGAUGUUAUAUAGAGAUGGAUACCAGCUGAGAGAAUAGCCCUUGGCAGCCGAAAGAAGUAUCAUUAGAGAAGAAUG [ExTheophyl.Aj]"
category_label = "criterion met"


Query: Reported apparent KD of K4 kissing-loop reporter at or above 100 nM? GUAUCGCUAGGAGGAUAUUCCAUUUUACAUAGAAAUGGCUAUGCGGAGUGAUGUUCCGAUUUACGGGAAGAAGGCCUAGUGAUAC [FMN B 21]
Result: criterion met

Reference for the values: the supplement of paper PMC9170038
